Numbers sourced from ChEMBL document CHEMBL4706600.

# System: DU-145
# method_summary: Cytotoxicity against human DU-145 cells assessed as reduction in cell viability by […]
# Format: functional, cell-based
As shown below, each of these compounds has a reported IC50 value.
Record the value in µM, omitting the unit from your answer.

Past entries and their recorded results:
smiles_repr	system_under_test	measurement_name	units_label	result_value
COc1ccc2cc([C@H](C)C(=O)NNC(=S)Nc3ccc(C(F)(F)F)cc3)ccc2c1	DU-145	IC50	µM	62.2
COc1ccc2cc([C@H](C)c3nnc(SCc4ccc(Cl)cc4)n3-c3ccc(F)cc3)ccc2c1	DU-145	IC50	µM	57.4
COc1ccc2cc([C@H](C)c3nnc(SCc4ccc(F)cc4)n3-c3ccc(Cl)cc3)ccc2c1	DU-145	IC50	µM	33.6
COc1ccc2cc([C@H](C)c3nnc(SCc4ccccc4)n3-c3ccc(Cl)cc3)ccc2c1	DU-145	IC50	µM	35.8
COc1ccc2cc([C@H](C)c3nnc(SCc4c(Cl)cccc4Cl)n3-c3ccc(Cl)cc3)ccc2c1	DU-145	IC50	µM	36.1

*Q* What value of IC50 has been reported for the following compound? "COc1ccc2cc([C@H](C)c3nnc(SCc4ccc(F)cc4)n3-c3ccc(F)cc3)ccc2c1"
*A* 60.2

*Q* Okay, and "COc1ccc2cc([C@H](C)c3nnc(SCc4ccc(C)cc4)n3-c3ccc(F)cc3)ccc2c1" ?
*A* 44.3
